target: T1, 4H3961-bN
T1 chain: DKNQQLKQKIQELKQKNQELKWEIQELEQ
procedure.text: two-hybrid library CCNG1;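 note: natural log of median RNA to DNA barcode read ratio; higher means stronger binding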
measure: interaction score

Solved entries:
Look at this binder and give its reported interaction score. DKIQQLKQEIQELEQKNQELKWENQELEQ [4H2619-bN]
-1.65

Look at this binder and give its reported interaction score. DENQQLEQEIQELEQKIQELKWKNQELKQ [4H1072-bN]
0.231

Look at this binder and give its reported interaction score. DKIQQLKQEIQELEQEIQELEWKNQELKQ [4H2568-bN]
1.52

1: DEIQQLEQKIQELKQKIQELKWENQELEQ [4H363-bN]
2: DKNQQLKQKIQELKQEIQELEWENQELEQ [4H3907-bN]
3: DKIQQLKQENQELEQKNQELKWEIQELEQ [4H2745-bN]
4: DEIQQLEQKIQELKQENQELEWKNQELKQ [4H344-bN]
Hey, quick one: sort these by interaction score, largest value first please. Please write the labels in the order that was asked for.
4, 1, 3, 2
(4: 0.044, 1: -0.162, 3: -0.46, 2: -1.64)
